Target: sigma binding site (Rattus norvegicus, UniProt Q9R0C9)
Construct: from tissue
Sequence (Q9R0C9 whole entry): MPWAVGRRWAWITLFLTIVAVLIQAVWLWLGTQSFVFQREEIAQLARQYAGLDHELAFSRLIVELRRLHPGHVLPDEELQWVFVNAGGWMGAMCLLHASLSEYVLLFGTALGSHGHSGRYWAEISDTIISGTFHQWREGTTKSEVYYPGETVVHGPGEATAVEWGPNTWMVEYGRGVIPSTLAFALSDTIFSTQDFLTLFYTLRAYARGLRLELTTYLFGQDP
Experiment: Sigma binding affinity using [^3 H]-(+)-3-(3'-hydroxyphenyl)-N-(1'-propyl)-piperdine (3PPP)
Conditions: [^3 H]PPP radioligand
Label 1.0 when IC50 is strictly below 1000 nM; otherwise label 0.0.

1) CCCN1CCC=C(c2cc(-c3ccccc3OC)no2)C1
0.0
2) CCCN1CCC=C(c2cc(-c3ccccc3C)on2)C1
1.0
3) CCCN1CCC=C(c2cc(-c3ccc(OC)cc3)on2)C1 [Example 14B]
0.0
4) CCCN1CCC=C(C2=NOC(c3ccc(Cl)cc3)C2)C1 (stereo not drawn)
1.0
5) CCCN1CCC=C(c2cc(-c3ccccc3OC)on2)C1
0.0
6) CCCN1CCC=C(c2cc(-c3ccccc3C)no2)C1
0.0
